Test: Solubility in water at final pH
Type: physicochemical
observable: solubility

Returns the measured solubility for the input compound. Input: CCCC(=O)c1cnn(-c2ccc(NC(=O)c3cn(CC(=O)N(C)C)c4cc(C)c(C)cc34)cc2)c1C
< 10 µg/mL

====

Measured metabolised at 20 min, listed per entry.
Assay: Metabolic stability in human liver microsomes assessed as compound metabolism after 20 mins incubation in presence of 1 mM NADPH
Assay type: ADME
Settings: liver microsomes, read-out: Drug metabolism
Entry rule: numbers only, all in %.

Worked cases, metabolised at 20 min given:
Sample CCCC(=O)c1cnn([C@H]2CC[C@H](NC(=O)c3cn(CC(=O)N4CCN(C)CC4)c4ccc(Cl)cc34)CC2)c1C — what was its metabolised at 20 min?
73

Try the compound CCCC(=O)c1cnn(-c2ccc(NC(=O)c3cn(CC(=O)N4CCN(C)CC4)c4ccc(Cl)cc34)nn2)c1C
29

And CCCC(=O)c1cnn(-c2ccc(NC(=O)c3cn(CC(=O)N4CCN(CCOC)CC4)c4ccc(Cl)cc34)cc2)c1C ?
47

Next:
Recorded metabolised at 20 min for CCCC(=O)c1cnn(-c2ccc(NC(=O)c3cn(CC(=O)N4CCN(C)CC4)c4ccc(C)cc34)cc2)c1C.Cl , please?
39

====

Readings of metabolised at 20 min for the listed molecules
Test: Metabolic stability in rat liver microsomes assessed as compound metabolism after 20 mins incubation in presence of 1 mM NADPH
Format: ADME
Conditions: liver microsomes, read-out: Drug metabolism

Request the reported metabolised at 20 min associated with CCCC(=O)c1cnn(-c2ccc(NC(=O)c3cn(CC(=O)N4CCN(C)CC4)c4ccc(Cl)cc34)c(C#N)c2)c1C
18%

Here is the next molecule: CCCC(=O)c1cnn(-c2ccc(NC(=O)c3cn(CC(=O)N4CCN(C)CC4)c4cc(C)c(Br)cc34)cc2)c1C
20%

Further cases:
# get_value(readout='metabolised at 20 min', item= CCCC(=O)c1cnn(-c2ccc(NC(=O)c3cn(CC(=O)N4CCN(C)CC4)c4ccc(Cl)cc34)cc2)c1C )
14%

Also CCCC(=O)c1cnn(-c2ccc(NC(=O)c3cn(CC(=O)N4CCN(C)CC4)c4ccc(OC)cc34)cc2)c1C ?
63%

====

Assay: Metabolic stability in human liver microsomes assessed as compound metabolism after 20 mins incubation in presence of 1 mM NADPH
Type: ADME
Details: liver microsomes, read-out: Drug metabolism
observable: metabolised at 20 min (%)
Express the result in % but write the number alone.

Answered examples (3):
Would you mind telling me what metabolised at 20 min value was observed for CCCC(=O)c1cnn(-c2ccc(NC(=O)c3cn(CC(=O)N4CCN(Cc5cc(C)on5)CC4)c4ccc(Cl)cc34)cc2)c1C ?
87

Also check CCCC(=O)c1cnn(-c2ccc(NC(=O)c3cn(CC(=O)N4CCN(Cc5ccc(F)cc5)CC4)c4ccc(C)cc34)cc2)c1C
63

Same for CCCC(=O)c1cnn(-c2ccc(NC(=O)c3cn(CC(=O)N4CCN(CCO)CC4)c4ccc(C)cc34)cc2)c1C
16

Further cases:
Need metabolised at 20 min of CCCC(=O)c1cnn(-c2ccc(NC(=O)c3cn(CC(=O)N4CCN(CCOC)CC4)c4ccc(C)cc34)cc2)c1C , thanks.
53

====

Reported metabolised at 20 min values follow for various compounds
Experiment: Metabolic stability in rat liver microsomes assessed as compound metabolism after 20 mins incubation in presence of 1 mM NADPH
Type: ADME
Details: liver microsomes, read-out: Drug metabolism
Lab book: enter the figure in %, no units written.

Which metabolised at 20 min is listed for CCCC(=O)c1cnn(-c2ccc(NC(=O)c3cn(CC(=O)N4CCN(Cc5cc(C)on5)CC4)c4ccc(Cl)cc34)cc2)c1C ?
31

// repeat for CCCC(=O)c1cnn(-c2ccc(NC(=O)c3cn(CC(=O)N4CCN(C)CC4)c4ccc(C)cc34)cc2)c1C.Cl and report
41

Next compound up: CC(=O)c1cnn(-c2ccc(NC(=O)c3cn(CC(=O)N4CCN(C)CC4)c4ccc(Cl)cc34)cc2)c1C
47

Then CCCC(=O)c1cnn(-c2ccc(NC(=O)c3cn(CC(=O)O)c4ccc(C)cc34)cc2)c1C ?
1

====

Target: P2Y purinoceptor 12 (Homo sapiens, UniProt Q9H244)
Sequence (Q9H244 whole entry): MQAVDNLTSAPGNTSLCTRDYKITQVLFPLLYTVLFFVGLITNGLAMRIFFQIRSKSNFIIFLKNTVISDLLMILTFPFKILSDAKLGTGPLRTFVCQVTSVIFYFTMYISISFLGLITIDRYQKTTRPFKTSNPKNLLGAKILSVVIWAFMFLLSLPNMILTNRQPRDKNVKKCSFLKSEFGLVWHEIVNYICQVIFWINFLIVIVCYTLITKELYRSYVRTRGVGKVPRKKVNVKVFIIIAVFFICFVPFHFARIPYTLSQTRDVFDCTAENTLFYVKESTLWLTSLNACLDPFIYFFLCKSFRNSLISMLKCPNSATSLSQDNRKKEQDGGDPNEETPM
Assay: Displacement of [33P]2MeS-ADP from P2Y12 receptor (unknown origin) transfected in CHO cells after 30 mins by scintillation counting analysis
Consider the cut-off 100 nM. If the recorded IC50 is strictly smaller, the label is True; if not, the label is False.

Recorded results for 4 molecules are shown here.
Just wondering, is IC50 of CCCC(=O)c1cnn(-c2ccc(NC(=O)c3cn(CC(=O)NC(C)CN(C)C)c4ccc(C)cc34)cc2)c1C (centres undefined) below 100 nM?
True

Okay, and CCCC(=O)c1cnn(-c2ccc(NC(=O)c3cn(CC(=O)N4CCN(Cc5cc(C)on5)CC4)c4ccc(Cl)cc34)cc2)c1C ?
True

Likewise for CCCC(=O)c1cnn(-c2ccc(NC(=O)c3cn(CC(=O)N4CCN5CCN(C)C(=O)C5C4)c4ccc(Cl)cc34)cc2)c1C (single isomer, unassigned; 104) ?
True

For CCCC(=O)c1cnn(-c2ccc(NC(=O)c3cn(CC(=O)N4CCN(CC)CC4)c4ccc(C)cc34)cc2)c1C then?
True

Continuing:
Item CCCC(=O)c1cnn(-c2ccc(NC(=O)c3cn(CC(=O)N4CCN(C)CC4)c4ccc(Cl)cc34)c(C(N)=O)c2)c1C : IC50 beneath 100 nM, strictly?
False

Now this one: CCCC(=O)c1cnn(-c2ccc(NC(=O)c3cn(CC(=O)N4CCCCC4CN)c4ccc(C)cc34)cc2)c1C (centres undefined)
False

What do we get for CCCC(=O)c1cnn(-c2ccc(NC(=O)c3cn(CC(=O)N4CCCC(N(C)C)C4)c4ccc(C)cc34)cc2)c1C (centres undefined) ?
True

What do we get for CCCC(=O)c1cnn(-c2ccc(NC(=O)c3cn(CC(=O)N4CCN(C)CC4)c4cc(Cl)c(C)cc34)cc2)c1C ?
False

====

Experiment: Permeability across human Caco2 cells
Type: ADME, cell-based
Details: Caco-2, read-out: permeability
Papp less than 4 ×10⁻⁶ cm/s is yes (1); Papp greater than or equal to 4 ×10⁻⁶ cm/s is no (0).

Worked examples follow.
Threshold test, Papp < 4 ×10⁻⁶ cm/s: CCCC(=O)c1cnn(-c2ccc(NC(=O)c3cn(CC(=O)N4CCN(CCOC)CC4)c4ccc(C)cc34)cc2)c1C
no (0)

Request: CCCC(=O)c1cnn(-c2ccc(NC(=O)c3cn(CC(=O)N4CCN(C)CC4)c4cc(C)c(Cl)cc34)cc2)c1C
yes (1)

Now consider CCCC(=O)c1cnn(-c2ccc(NC(=O)c3cn(CC(=O)N4CCN(C)CC4)c4ccc(Cl)cc34)nn2)c1C and answer again.
yes (1)

Try this compound next: CCCSc1nc(N[C@@H]2C[C@H]2c2ccc(F)c(F)c2)c2nnn([C@@H]3C[C@H](OCCO)[C@@H](O)[C@H]3O)c2n1
no (0)

What about this compound? CCCC(=O)c1cnn(-c2ccc(NC(=O)c3cn(CC(=O)N4CCN5CCN(C)C(=O)C5C4)c4ccc(Cl)cc34)cc2)c1C (racemic)
yes (1)

Query compound follows.
I wonder whether CCCC(=O)c1cnn(-c2ccc(NC(=O)c3cn(CC(=O)N4CCN(Cc5ccc(F)cc5)CC4)c4ccc(C)cc34)cc2)c1C has Papp below 4 ×10⁻⁶ cm/s. Can you tell?
yes (1)

====

Biological target: P2Y purinoceptor 12 (Homo sapiens, UniProt Q9H244)
Assay: Displacement of [33P]2MeS-ADP from P2Y12 receptor (unknown origin) transfected in CHO cells after 30 mins by scintillation counting analysis
observable: pIC50
Conceptually, pIC50 converts a concentration in mol/L into minus its log10.

The examples below pair each entry with its known result.
Endpoint output: pIC50 of CCCC(=O)c1cnn(-c2ccc(NC(=O)c3cn(CC(=O)N4CCN(C5CC5)CC4)c4ccc(C)cc34)cc2)c1C . Value?
7.36

Next molecule up: CCCC(=O)c1cnn(-c2ccc(NC(=O)c3cn(CC(=O)N4CCNCC4)c4ccc(C)cc34)cc2)c1C
7.59

---
Could you share which pIC50 value was measured for CCCC(=O)c1cnn(-c2ccc(NC(=O)c3cn(CC(=O)N4CCN(C)CC4)c4ccc(OC)cc34)cc2)c1C ?
7.66

Entry to check: CCCCN1CCN(C(=O)Cn2cc(C(=O)Nc3ccc(-n4ncc(C(=O)CCC)c4C)cc3)c3cc(C)ccc32)CC1
6.92

Further, for CCCC(=O)c1cnn(-c2ccc(NC(=O)c3cn(CC(=O)N4C[C@@H]5C[C@H]4CN5)c4ccc(C)cc34)cc2)c1C ?
7.07

How about this molecule: CCCC(=O)c1cnn(-c2ccc(NC(=O)c3cn(CC(=O)N4CCN(C)CC4)c4cc(C)c(C)cc34)cc2)c1C.Cl
7.41

Please answer likewise for CCCC(=O)c1cnn(-c2ccc(NC(=O)c3cn(CC(=O)N4CCN(C)CC4)c4cc(C)c(Br)cc34)cc2)c1C
7.32
